These measurements were taken from ChEMBL document CHEMBL3301458.

# TARGET_ENTITY: hERG (Kv11.1, KCNH2) (Homo sapiens)
# Sequence (Q12809 whole entry): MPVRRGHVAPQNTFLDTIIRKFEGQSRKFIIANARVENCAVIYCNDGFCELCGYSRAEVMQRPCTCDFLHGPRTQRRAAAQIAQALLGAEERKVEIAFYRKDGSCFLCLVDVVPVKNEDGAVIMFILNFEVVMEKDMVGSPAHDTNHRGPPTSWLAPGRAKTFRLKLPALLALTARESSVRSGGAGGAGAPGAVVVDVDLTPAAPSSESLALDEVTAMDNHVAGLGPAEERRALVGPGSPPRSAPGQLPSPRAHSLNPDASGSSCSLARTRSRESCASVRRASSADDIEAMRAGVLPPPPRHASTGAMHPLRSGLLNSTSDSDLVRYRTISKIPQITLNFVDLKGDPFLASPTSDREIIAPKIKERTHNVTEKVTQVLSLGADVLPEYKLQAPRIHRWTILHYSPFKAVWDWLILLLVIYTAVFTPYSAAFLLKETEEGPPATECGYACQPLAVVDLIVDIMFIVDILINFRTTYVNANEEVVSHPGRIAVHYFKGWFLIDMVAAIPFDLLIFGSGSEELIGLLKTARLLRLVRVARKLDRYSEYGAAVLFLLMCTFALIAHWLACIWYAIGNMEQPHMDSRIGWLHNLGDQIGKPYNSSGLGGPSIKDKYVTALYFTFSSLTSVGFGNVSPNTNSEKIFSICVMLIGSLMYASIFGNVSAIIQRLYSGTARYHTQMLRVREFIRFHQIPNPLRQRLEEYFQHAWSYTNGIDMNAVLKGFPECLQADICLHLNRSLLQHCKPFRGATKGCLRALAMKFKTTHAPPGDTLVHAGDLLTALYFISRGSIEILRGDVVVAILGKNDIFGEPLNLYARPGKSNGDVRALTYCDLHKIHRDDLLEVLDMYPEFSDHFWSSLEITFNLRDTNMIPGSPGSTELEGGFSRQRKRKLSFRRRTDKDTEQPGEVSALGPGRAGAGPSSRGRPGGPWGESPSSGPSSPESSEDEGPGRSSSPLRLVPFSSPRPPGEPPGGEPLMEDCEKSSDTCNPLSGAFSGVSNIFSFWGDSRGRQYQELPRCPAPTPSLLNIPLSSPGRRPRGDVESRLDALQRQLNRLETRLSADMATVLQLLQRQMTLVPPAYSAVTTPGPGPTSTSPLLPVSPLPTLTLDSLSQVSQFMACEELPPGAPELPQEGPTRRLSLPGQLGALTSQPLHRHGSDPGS
# EXPERIMENT: in vitro
# Description: MMV: Malaria Box compounds were tested for inhibition of the human ether a go-go related gene (hERG), Kv11.1 channel, using IonWorks 384-well patch clamp electrophysiology at 11.1uM (3 independent assay plates up to 12 cells per concentration).
Activity calls are given as the source filed them. The rule behind the calls is not given here.
Possible outcomes: y (active), n (inactive)

O=C(NCC1Cc2cccc(-c3ccncc3)c2O1)c1csc2c1CCCC2 (stereo unspecified)	y
COc1cc(CNCCc2ccc(Cl)cc2)cc(OC)c1O	y
CCOC(=O)c1cnc2ccc(CC)cc2c1O	n
CCCc1cc(O)c2c3c(c(=O)oc2c1)CN(C)CC3	y
Nc1nc(Nc2cccc(F)c2)nc2ccccc12	y
COc1cc(-c2nc(-c3ccc(Sc4ccccc4)cc3)c(-c3ccccc3)[nH]2)cc(OC)c1O	n
CCC(C)NCC(O)(c1ccc(Cl)cc1)c1ccc(Cl)cc1 (stereo unspecified)	y
Cc1ccc(C2CC(C(F)(F)F)n3nc(C(=O)N4CCN(C(c5ccccc5)c5ccccc5)CC4)cc3N2)cc1 (stereo unspecified)	n
COc1cccc(NC(=O)Cn2c(C)c(C#N)c3ccccc32)c1	n
COc1ccc(CN2CCN(Cc3ccccc3)CC2)c(O)c1	y

###

Entries and their measured inhibition at 1.1 µM follow.
# TARGET_ENTITY: hERG (Kv11.1, KCNH2) (Homo sapiens)
# EXPERIMENT: in vitro
# Description: MMV: Malaria Box compounds were tested for inhibition of the human ether a go-go related gene (hERG), Kv11.1 channel, using IonWorks 384-well patch clamp electrophysiology at 1.1uM (3 independent assay plates up to 12 cells per concentration).
READOUT_TYPE: inhibition at 1.1 µM (%)

CCCCOC(=O)c1ccc(Nc2cc(C)nc3ccc(OC)cc23)cc1	65
Cc1ccc(CN2CCC(C(=O)Nc3ccc(-c4cc5ccccc5[nH]4)cc3)CC2)o1	9
FC(F)(F)c1cccc(CNC2CCN(CCc3ccccc3)CC2)c1	4
COc1cccc(Cn2c(Oc3ccccc3)nc3c2c(=O)n(C)c(=O)n3C)c1	-4
CCN1CCN(Cc2ccc(NC(=O)c3cc4ccc5cccnc5c4[nH]3)cc2)CC1	41
Cc1ccc(Nc2nc(N)c3ccccc3n2)cc1Cl	5
N#Cc1nc(Cc2cccc3ccccc23)oc1N1CCN(C(c2ccccc2)c2ccccc2)CC1	15
O=C(Nc1cccc(C2=NCCN2)c1)Nc1cccc(C2=NCCN2)c1	59
CCOC(=O)C1=C(C)N=c2sc(=Cc3cc(Cl)ccc3O)c(=O)n2C1c1ccc(OC)cc1 (stereo not given)	2
Cn1c(C(=O)c2cccc3ccccc23)nc2ccccc21	-4

###

# TARGET_ENTITY: UniProtKB Q12809
# EXPERIMENT: in vitro
The source made the active and inactive calls. No rule for the calls is given here.
Possible outcomes: T = active, F = inactive

Cc1cc(Nc2cccc(F)c2)nc(NCc2ccccc2)n1	T
CCC(=O)Nc1nnc(Cc2ccc(OC)c(OC)c2)s1	F
CN(N=O)C1=C(NC2CCCCC2)C(=O)c2ccccc2C1=O	T
Cc1cc(C=C2SC(=Nc3ccccc3)N(C3CCCC3)C2=O)c(C)n1-c1ccc(Cl)cc1	F
CCOc1ccc(C2N(C)c3ccccc3N2C)cc1	F
Cc1ccnc(NC(c2cccc(OCc3ccccc3)c2)c2ccc3cccnc3c2O)c1 (configuration not stated)	F
COc1cc(-c2nc(-c3ccccc3)c(-c3ccccc3)[nH]2)cc(OC)c1O	F
Cc1sc(NC(=O)c2ccccc2)c(C(c2cccs2)N2CCN(c3ccccc3)CC2)c1C (configuration not stated)	F
CCOc1ccc(-n2cc(-c3ccccc3)c3c(SCc4cc(C)ccc4C)ncnc32)cc1	F
C[n+]1c2ccccc2nc2ccc(NCCO)cc21	F

###

# TARGET_ENTITY: hERG (Kv11.1, KCNH2) (Homo sapiens)
# EXPERIMENT: in vitro
READOUT_TYPE: inhibition at 1.1 µM (%)

O=C1c2ccccc2C2=Nc3ccccc3SC(c3cccc(F)c3)C12 (stereo not given)	-4
CCCc1c(C)nc2ccc(Br)cc2c1O	1
Cc1cccc(-n2ncc3c(O)nc(-n4nc(C)cc4NC(=O)c4cc5ccccc5o4)nc32)c1	-3
CCN(CC)CCCNc1nc(-c2ccc(Cl)cc2)nc2ccccc12	8
CCCN(CCC)CC(O)COc1ccccc1C(=O)Nc1ccccc1 (stereo not given)	57
COc1cccc(C(=O)NC(c2ccc(C)cc2)c2cc(Cl)c3cccnc3c2O)c1 (stereo not given)	4
CCOc1c(Cl)cc(CNCC(O)c2ccccc2)cc1OC (stereo not given)	16
COc1ccc(C(O)(CCC(C)C)C(CN2CCOCC2)c2ccc(Cl)cc2)cc1 (stereo not given)	4
OC(CNC1CCCCC1)Cn1c2ccc(I)cc2c2cc(I)ccc21 (stereo not given)	-5
COc1cc2c3cc1Oc1c(OC)c(OC)cc4c1C(Cc1ccc(O)c(c1)Oc1ccc(cc1)CC3N(C)CC2)N(C)CC4 (stereo not given)	14
